Test system: Escherichia coli TOP10;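 also: peptides expressed intracellularly from a pBAD plasmid library in pooled LB shake-flask culture, induced with 0.3% L-arabinose, DNA abundance read by NGS, three biological replicates, DESeq2 with apeglm shrinkage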
Experiment: shrunken log2 fold change of peptide-encoding DNA abundance (4.5 h post-induction vs induction); higher = less antimicrobial activity (less host growth inhibition)
Conditions: time post-induction: 4.5 h; library: site-saturation at positions 5, 18, 19, 20
Endpoint name: shrunken log2 fold change
Please give the numeric answer without any surrounding text.

Some entries whose results are on file:
>>> df
             item_sequence   result
0  RRIRRRPPRLPRPRPRPDPSPRP    0.213
1  RRIRWRPPRLPRPRPRPWYKPRP     -0.1
2  RRIRSRPPRLPRPRPRPQPSPRP    0.296
3  RRIRERPPRLPRPRPRPRMGPRP   -0.173
4  RRIRMRPPRLPRPRPRPWPEPRP    0.735
5  RRIRQRPPRLPRPRPRPENDPRP  -0.0134
6  RRIRWRPPRLPRPRPRPEKVPRP    0.115
7  RRIRTRPPRLPRPRPRPGFVPRP  -0.0603
8  RRIRQRPPRLPRPRPRPFWAPRP    0.289
9  RRIRYRPPRLPRPRPRPEPGPRP    0.215

Exercise: Read off the recorded shrunken log2 fold change for RRIRVRPPRLPRPRPRPGFLPRP
Solution: 0.101

Exercise: Read off the recorded shrunken log2 fold change for RRIRRRPPRLPRPRPRPWLLPRP
Solution: 0.0822

Exercise: Read off the recorded shrunken log2 fold change for RRIRDRPPRLPRPRPRPRFNPRP
Solution: 0.858

Exercise: Read off the recorded shrunken log2 fold change for RRIRFRPPRLPRPRPRPKDNPRP
Solution: -0.000409

Exercise: Read off the recorded shrunken log2 fold change for RRIRERPPRLPRPRPRPADEPRP
Solution: -0.032

Exercise: Read off the recorded shrunken log2 fold change for RRIRRRPPRLPRPRPRPPIAPRP
Solution: 0.385

Exercise: Read off the recorded shrunken log2 fold change for RRIRQRPPRLPRPRPRPNISPRP
Solution: -0.565

Exercise: Read off the recorded shrunken log2 fold change for RRIRERPPRLPRPRPRPGGNPRP
Solution: -0.442

Exercise: Read off the recorded shrunken log2 fold change for RRIRCRPPRLPRPRPRPWKMPRP
Solution: -0.0124

Exercise: Read off the recorded shrunken log2 fold change for RRIRLRPPRLPRPRPRPVTVPRP
Solution: -0.128

Exercise: Read off the recorded shrunken log2 fold change for RRIRFRPPRLPRPRPRPWQPPRP
Solution: 0.0512

Exercise: Read off the recorded shrunken log2 fold change for RRIRERPPRLPRPRPRPINDPRP
Solution: -0.223

Exercise: Read off the recorded shrunken log2 fold change for RRIRWRPPRLPRPRPRPLTSPRP
Solution: -0.101

Exercise: Read off the recorded shrunken log2 fold change for RRIRARPPRLPRPRPRPPNKPRP
Solution: 0.23

Exercise: Read off the recorded shrunken log2 fold change for RRIRHRPPRLPRPRPRPDDQPRP
Solution: -0.0481

Exercise: Read off the recorded shrunken log2 fold change for RRIRDRPPRLPRPRPRPEGCPRP
Solution: 0.0171

Exercise: Read off the recorded shrunken log2 fold change for RRIRMRPPRLPRPRPRPEWYPRP
Solution: 0.0183

Exercise: Read off the recorded shrunken log2 fold change for RRIRCRPPRLPRPRPRPFSRPRP
Solution: -0.332
